procedureDetails: Human HepG2 cell viability assay in 384 well format
Format: toxicity, cell-based
Design: dose 125 nL, time 70.5 hour; concentration not given beside the values
recordedConditions: HepG2 cells, read-out: Inhibition
measurementName: cytotoxicity at 70.5 h (%)
Answers are plain numbers, in %.

// worked examples, cytotoxicity at 70.5 h included
Ask: Supply recorded cytotoxicity at 70.5 h for "Nc1cc2c(nn1)CCN(C(=O)c1cccnc1Oc1ccccc1)C2" here.
Result: -8.86

Ask: Supply recorded cytotoxicity at 70.5 h for CC(C)CNC(=O)C[S+]([O-])Cc1csc(C2CCCCC2)n1 (stereo unspecified) here.
Result: -13

Ask: Supply recorded cytotoxicity at 70.5 h for CNC(=O)CCC(=O)N1CCOC(c2ccc3cc(OC)ccc3c2)C1 (stereo unspecified) here.
Result: -3.11

Ask: Supply recorded cytotoxicity at 70.5 h for "Cn1c(Cn2ccnc2)nnc1C1CCN(C(=O)c2cccnc2)CC1" here.
Result: -10.4

Ask: Supply recorded cytotoxicity at 70.5 h for O=C(c1ccc(-n2cnnc2)nc1)N1CCCC(O)(CO)CC1 (stereo unspecified) here.
Result: -22.7

Give cytotoxicity at 70.5 h for each listed item.
1. Cc1ccc(CN2C[C@@H](C(=O)O)[C@H](c3ccccn3)C2)o1
2. CC(C)C(=O)Nc1cccc(CNC(=O)CSCc2ccccn2)c1
3. COc1ccccc1C1(CNc2ncc(S(N)(=O)=O)s2)CC1

Result:
1. 17.9
2. -11.7
3. -6.5

* * *

procedureDetails: Human HepG2 cell viability assay in 384 well format
Type: toxicity, cell-based
Design: dose 125 nL, time 70.5 hour; concentration not given beside the values
recordedConditions: HepG2 cells, read-out: Inhibition
measurementName: cytotoxicity at 70.5 h (%)
One number for each entry, in %.

// worked examples, cytotoxicity at 70.5 h included
Ask: Supply recorded cytotoxicity at 70.5 h for "COc1ccccc1C(=O)Nc1c(F)c(C(=O)NCCC(C)C)nn1C" here.
Result: 25.3

Ask: Supply recorded cytotoxicity at 70.5 h for "CNC(=O)[C@@H]1C[C@H](N)CN1S(=O)(=O)c1cc(Cl)cc(Cl)c1O" here.
Result: -6.21

Ask: Supply recorded cytotoxicity at 70.5 h for Fc1cnc(N2CCC3(COCc4cnc(NCC5CC5)nc43)C2)nc1 (configuration not stated) here.
Result: -6.29

Ask: Supply recorded cytotoxicity at 70.5 h for "CNC(=O)Cc1ccccc1NC(=O)C1CCCC1" here.
Result: 29.2

Ask: Supply recorded cytotoxicity at 70.5 h for Cc1nc(C2CCCN2Cc2cc(Cl)c3c(c2)OCO3)no1 (configuration not stated) here.
Result: -4.26

Ask: Supply recorded cytotoxicity at 70.5 h for "O=C1[C@@H]2CCN(Cc3ccc(F)cc3)C[C@@H]2OCCN1c1cccnc1" here.
Result: -3.72

Ask: Supply recorded cytotoxicity at 70.5 h for Cc1cnn(C2CCCN(C(=O)Cc3ccc4c(c3)CCO4)C2)c1 (configuration not stated) here.
Result: 13.9

Ask: Supply recorded cytotoxicity at 70.5 h for "COc1cc(C(=O)NS(=O)(=O)c2cc(Cl)sc2Cl)ccc1OC(F)F" here.
Result: -5.6

Ask: Supply recorded cytotoxicity at 70.5 h for "CN1CCN(CCc2ncnn2-c2ccc3c(c2)OCO3)CC1" here.
Result: 22

Ask: Supply recorded cytotoxicity at 70.5 h for Cc1cc(N2CCC(Cc3cnccn3)C2)ncn1 (configuration not stated) here.
Result: -7.8

Give cytotoxicity at 70.5 h for each listed item.
1. Fc1cccnc1Oc1cc(F)c(CN2CCCC2)c(Cl)c1
2. Fc1ccc(-c2noc3c2CN(CC2CC2)CC3)cc1F
3. COCc1noc(-c2ccc(N3CCCC3c3nccs3)nc2)n1 (configuration not stated)
4. c1ccc2nc(N3CCOC(Cn4cncn4)C3)cnc2c1 (configuration not stated)
5. CCC(=O)N1CCC2(COCc3c(C)nc(NCc4ccco4)nc32)C1 (configuration not stated)
6. Cc1ccc(CN2CCN(Cc3nccn3C)[C@H]3CS(=O)(=O)C[C@H]32)o1
7. Cc1cc(C)cc(-c2cc(C3CCOC3)c(C#N)c(N)n2)c1 (configuration not stated)

Result:
22.4
-29.6
12
-5.96
-6.57
-6.86
12.8

* * *

procedureDetails: Human HepG2 cell viability assay in 384 well format
Assay type: toxicity, cell-based
Parameters: dose 125 nL, time 70.5 hour; concentration not given beside the values
recordedConditions: HepG2 cells, read-out: Inhibition
I'd be grateful if you could share measured cytotoxicity at 70.5 h for these entries.
One number for each entry, in %.

// worked examples, cytotoxicity at 70.5 h included
Ask: Supply recorded cytotoxicity at 70.5 h for COCCN1CCN(CC(O)c2ccc(C(F)(F)F)cc2)CC1 (stereo unspecified) here.
Result: -7.3

Ask: Supply recorded cytotoxicity at 70.5 h for "CC(C)c1ocnc1C(=O)NC1(c2cccc(F)c2)CCOCC1" here.
Result: -3.27

Ask: Supply recorded cytotoxicity at 70.5 h for Cc1cc(C)c2c(N(C)CC3CCOC3)ncnc2n1 (stereo unspecified) here.
Result: -4.45

Ask: Supply recorded cytotoxicity at 70.5 h for O=C(c1n[nH]c2c1CN(C1CCOC1)CC2)N1CCOCC1 (stereo unspecified) here.
Result: -2.91

Ask: Supply recorded cytotoxicity at 70.5 h for "COc1ncccc1C(=O)Nc1nc2c(s1)CN(S(=O)(=O)C1CC1)CC2" here.
Result: 3.95

Ask: Supply recorded cytotoxicity at 70.5 h for "O=C(Cc1ccc(Cl)cc1)N[C@@H]1CCC[C@@H](O)[C@@H]1O" here.
Result: -0.327

Ask: Supply recorded cytotoxicity at 70.5 h for CCCc1n[nH]c(C2CN(C(=O)c3ccc4c(c3)COC4)CCO2)n1 (stereo unspecified) here.
Result: -4.22

Ask: Supply recorded cytotoxicity at 70.5 h for CCC(NC1CSCCSC1)c1ccc(S(C)(=O)=O)cc1 (stereo unspecified) here.
Result: -14.2

Give cytotoxicity at 70.5 h for each listed item.
1. CN(Cc1ccccc1)C(=O)CN1CCCCC1Cn1cncn1 (stereo unspecified)
2. CCc1cc(CN2CCC(CCC(=O)Nc3ccccc3Cl)CC2)on1
3. CN1Cc2c(C(=O)Nc3cccnc3)ncn2-c2ccccc2S1(=O)=O
4. Cc1cc(C2CCCN2C(=O)NCc2cccnc2N(C)C)on1 (stereo unspecified)

Result:
1: 1.47; 2: -0.0329; 3: -8.44; 4: 23.2

Give cytotoxicity at 70.5 h for each listed item.
1. Cc1ccc(S(=O)(=O)N2CCC(S(=O)(=O)c3nncn3C)CC2)cc1C
2. Cc1ccc(NC(=O)CN2CCOCC2)c(F)c1
3. Cc1ncccc1O[C@H]1CCN(C(=O)Cc2cccs2)CC[C@@H]1O

Result:
[-6.93, 21.2, -7.99]

Give cytotoxicity at 70.5 h for each listed item.
1. Cc1cnc(N2CCCC(c3ccccc3)C2)nc1-c1ccnn1C (stereo unspecified)
2. N#Cc1cccc(OCCN2CCCC2C(=O)N2CCSCC2)c1 (stereo unspecified)
3. Cc1ccc2[nH]c(CN(C)c3cc(CN)nc(C)n3)nc2c1
4. CS(=O)(=O)CCC(=O)Nc1nccn1Cc1ccccc1Cl
5. CN(c1ccc(OCc2cnc(Cl)s2)cc1)S(C)(=O)=O
6. CNC(=O)c1cc2c(nc1NC(C)C)CCNCC2

Result:
1: -8.04; 2: 3.62; 3: 0.934; 4: 0.444; 5: 5.74; 6: 6.54

Give cytotoxicity at 70.5 h for each listed item.
1. CC(C)CCN1CCCC12Cc1ccccc1CNC2=O (stereo unspecified)
2. Cn1cc(Cl)c(CN2CCn3nc(C(=O)N4CCCC4)cc3C2)n1
3. CNC(=O)c1cn[nH]c1C1CCCN1C(=O)c1ccccn1 (stereo unspecified)
4. O=C(NCC(F)(F)F)NC1CCCc2c1cnn2CCO (stereo unspecified)
5. Cc1ncsc1CN1Cc2cnn(C)c2C(COCC2CC2)C1 (stereo unspecified)
6. CC(C)(C)CN1Cc2cc3c(cc2NCCC1=O)OCO3
7. CCc1nc(CN(C)Cc2ncc(-c3cccs3)o2)cs1
8. O=C(c1cc(Cn2cnc3ccccc32)on1)N1CCOCC1

Result:
[-7.7, -4.39, -1.79, -8.96, -1.88, 23.7, -1.61, -17.3]

Give cytotoxicity at 70.5 h for each listed item.
1. Cc1nc(C)c(C(=O)NCC(c2ccccc2Cl)N2CCOCC2)s1 (stereo unspecified)
2. CCOCC(=O)Nc1ccc(N2CCSCC2)cc1C
3. CN(C)CCOc1cc(NC(=O)COCC(F)(F)F)ccn1
4. CCOCC(=O)N1CCC2(CC1)CC(c1ccccc1)CO2 (stereo unspecified)
5. Cc1nn(CCO)c(C)c1CNC1CCc2c(F)cccc21 (stereo unspecified)
6. COCCN1CCC(CN(C)c2nc3c(s2)c(C)nn3C)C1 (stereo unspecified)
7. N#CCCN(CC1CCOC1)S(=O)(=O)c1c(F)cccc1Cl (stereo unspecified)

Result:
19.6
-7.62
-2.8
-2.96
0.27
-3.25
-6.61
